As shown below, each of these compounds has a reported pIC50 value.
Target: HCV NS3 helicase (Hepatitis C virus genotype 1b, UniProt P26663)
Construct: full-length NS3 (1-631), purified at Array BioPharma
Sequence (P26663 1027-1657): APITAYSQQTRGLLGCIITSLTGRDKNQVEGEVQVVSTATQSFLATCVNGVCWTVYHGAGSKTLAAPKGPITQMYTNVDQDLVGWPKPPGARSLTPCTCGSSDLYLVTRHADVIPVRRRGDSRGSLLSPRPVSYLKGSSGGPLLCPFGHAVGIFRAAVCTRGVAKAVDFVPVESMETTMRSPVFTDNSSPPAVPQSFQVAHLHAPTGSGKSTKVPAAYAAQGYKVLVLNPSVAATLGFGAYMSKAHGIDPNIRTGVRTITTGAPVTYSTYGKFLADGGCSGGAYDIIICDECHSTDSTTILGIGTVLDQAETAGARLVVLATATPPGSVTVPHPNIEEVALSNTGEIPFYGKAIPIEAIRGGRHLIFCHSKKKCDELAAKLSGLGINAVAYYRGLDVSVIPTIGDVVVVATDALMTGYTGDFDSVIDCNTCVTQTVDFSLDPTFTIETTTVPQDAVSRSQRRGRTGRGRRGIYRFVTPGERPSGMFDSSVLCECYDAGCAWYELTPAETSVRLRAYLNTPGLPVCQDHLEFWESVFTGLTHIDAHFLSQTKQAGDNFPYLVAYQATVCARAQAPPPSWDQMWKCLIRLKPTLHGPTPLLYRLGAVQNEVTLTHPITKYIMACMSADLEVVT
Assay: HCV Helicase Prompt FRET Assay (Example A)
Assay type: biochemical
Conditions: HCV NS3 helicase; tables do not say whether Example A or Example B assay; read-out: IC50 Activity
pIC50: −log10 of the molar value.

Examples from the recorded data:
- Compound: "O=C(O)Cc1c(C(=O)c2ccc(-c3ccc(Cl)c(Cl)c3)cc2)[nH]c2ccccc12 [Example 257]"
  Result: "> 5.00"
- Compound: "O=C(O)Cc1cn(Cc2ccc(Oc3cc(F)cc(F)c3)cc2)c2ccccc12 [Example 506]"
  Result: "> 5.00"

Alright, here's another compound for you.
Report its pIC50 with HCV NS3 helicase (Hepatitis C virus genotype 1b, UniProt P26663) as the test system: CC(C)c1cccc(-c2cccc(C(=O)c3[nH]c4ccccc4c3CC(=O)O)c2)c1 [Example 227]
> 5.00

###

As shown below, each of these compounds has a reported IC50 value.
Biological target: HCV NS3 helicase (Hepatitis C virus genotype 1b, UniProt P26663)
Construct: full-length NS3 (1-631), purified at Array BioPharma
Assay: HCV Helicase Prompt FRET Assay (Example A)
Assay type: biochemical
Conditions: HCV NS3 helicase; tables do not say whether Example A or Example B assay; read-out: IC50 Activity

Examples from the recorded data:
- Smiles record: "Cc1cc([N+](=O)[O-])ccc1-n1cc(C(=O)O)c2cc(Br)ccc21"
  Measured property: "IC50"
  Result: "> 50 µM"
- Smiles record: "CC(C)N(c1cccc(Cn2cc(CC(=O)O)c3ccccc32)c1)c1ccccc1Cl"
  Measured property: "IC50"
  Result: "< 10 µM"
- Smiles record: "CC(C)c1ccc(Cn2c(C(=O)NCc3nc4ccccc4[nH]3)c(CC(=O)O)c3cc(Br)ccc32)cc1"
  Measured property: "IC50"
  Result: "< 10 µM"
- Smiles record: "COc1cccc(-c2ccc(-n3cc(CC(=O)O)c4ccccc43)cc2)c1"
  Measured property: "IC50"
  Result: "< 10 µM"
- Smiles record: "Cc1cc([N+](=O)[O-])ccc1-n1c2ccc(Br)cc2c2c(C(=O)O)cccc21"
  Measured property: "IC50"
  Result: "10 to 50 µM"

Report its IC50 with HCV NS3 helicase (Hepatitis C virus genotype 1b, UniProt P26663) as the test system: COc1cccc(Oc2cccc(Cn3cc(CC(=O)O)c4ccccc43)c2)c1OC
< 10 µM

Report its IC50 with HCV NS3 helicase (Hepatitis C virus genotype 1b, UniProt P26663) as the test system: O=C(O)Cc1cn(Cc2cccc(Oc3cc(F)cc(F)c3)c2)c2ccccc12
10 to 50 µM

Report its IC50 with HCV NS3 helicase (Hepatitis C virus genotype 1b, UniProt P26663) as the test system: O=C(O)Cc1cn(Cc2csc3ccc(Cl)cc23)c2cc(OCc3ccccc3)c(OCc3ccccc3)cc12
< 10 µM

Measured values drawn from patent US20090047246A1 for this set.
